- experimental system: Sodium-dependent serotonin transporter (Rattus norvegicus)
- protocol: In vitro inhibition of [3H]citalopram binding to serotonin transporter on rat striatal membranes.
pIC50: −log10 of the molar value.
As shown below, each of these molecules has a reported pIC50 value.

| molecule | pIC50 |
| --- | --- |
| Fc1ccc(CN2CCC(CCOC(c3ccccc3)c3ccccc3)CC2)cc1Cl | 5.60 |
| c1ccc(C(OCCC2CCN(Cc3cccs3)CC2)c2ccccc2)cc1 | 5.90 |
| Nc1ccc(CN2CCC(CCOC(c3ccccc3)c3ccccc3)CC2)cc1 | 5.80 |
| c1ccc(C(OCCC2CCN(Cc3cccnc3)CC2)c2ccccc2)cc1 | 6.17 |
| c1ccc(C(OCCC2CCN(Cc3cccnc3)CC2)c2cccs2)cc1 (configuration not stated) | 6.03 |
| c1ccc(CN2CCC(CCOC(c3ccccc3)c3cccs3)CC2)cc1 (configuration not stated) | 6.13 |
| Fc1ccc(CN2CCC(CCOC(c3ccccc3)c3ccccc3)CC2)cc1 | 5.72 |

----------
The entries below come with measured IC50 values attached.
- experimental system: Sodium-dependent serotonin transporter (Rattus norvegicus, UniProt P31652)
- Sequence (P31652 whole entry): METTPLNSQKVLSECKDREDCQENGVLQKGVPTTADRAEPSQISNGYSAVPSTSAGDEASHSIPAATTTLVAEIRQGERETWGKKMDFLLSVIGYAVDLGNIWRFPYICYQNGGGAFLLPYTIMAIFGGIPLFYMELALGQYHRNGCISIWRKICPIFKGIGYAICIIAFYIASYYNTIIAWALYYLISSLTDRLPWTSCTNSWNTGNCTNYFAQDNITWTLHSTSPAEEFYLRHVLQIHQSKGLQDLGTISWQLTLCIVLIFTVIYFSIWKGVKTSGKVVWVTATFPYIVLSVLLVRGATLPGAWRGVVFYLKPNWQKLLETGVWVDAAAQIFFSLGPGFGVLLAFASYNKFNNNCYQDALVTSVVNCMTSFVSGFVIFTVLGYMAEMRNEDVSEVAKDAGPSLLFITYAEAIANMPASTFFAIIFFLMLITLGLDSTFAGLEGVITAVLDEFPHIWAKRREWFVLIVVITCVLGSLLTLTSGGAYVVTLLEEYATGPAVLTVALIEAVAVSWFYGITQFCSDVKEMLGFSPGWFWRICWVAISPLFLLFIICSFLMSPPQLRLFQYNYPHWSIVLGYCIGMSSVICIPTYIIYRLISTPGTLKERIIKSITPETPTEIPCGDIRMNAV
- protocol: In vitro inhibition of [3H]citalopram binding to serotonin transporter on rat striatal membranes.

| molecule | experimental system | output unit | IC50 |
| --- | --- | --- | --- |
| Fc1ccc(CN2CCC(CCOC(c3ccccc3)c3ccc(F)cc3)CC2)cc1 (stereo not given) | Sodium-dependent serotonin transporter (Rattus norvegicus, UniProt P31652) | nM | 1260 |
| Clc1ccc(CN2CCC(CCOC(c3ccccc3)c3ccccc3)CC2)cc1Cl | Sodium-dependent serotonin transporter (Rattus norvegicus, UniProt P31652) | nM | 2880 |
| Fc1ccc(CN2CCC(CCOC(c3ccccc3)c3cccs3)CC2)cc1 (stereo not given) | Sodium-dependent serotonin transporter (Rattus norvegicus, UniProt P31652) | nM | 1390 |
| COc1ccc(CN2CCC(CCOC(c3ccccc3)c3ccccc3)CC2)cc1 | Sodium-dependent serotonin transporter (Rattus norvegicus, UniProt P31652) | nM | 1240 |
| Fc1ccc(CN2CCC(CCOC(c3ccccc3)c3ccc(Cl)cc3)CC2)cc1 (stereo not given) | Sodium-dependent serotonin transporter (Rattus norvegicus, UniProt P31652) | nM | 1810 |
| O=[N+]([O-])c1ccc(CN2CCC(CCOC(c3ccccc3)c3ccccc3)CC2)cc1 | Sodium-dependent serotonin transporter (Rattus norvegicus, UniProt P31652) | nM | 1770 |
| c1ccc(C(OCCC2CCN(Cc3cc4ccccc4s3)CC2)c2ccccc2)cc1 | Sodium-dependent serotonin transporter (Rattus norvegicus, UniProt P31652) | nM | 1540 |
| Brc1ccc(CN2CCC(CCOC(c3ccccc3)c3ccccc3)CC2)cc1 | Sodium-dependent serotonin transporter (Rattus norvegicus, UniProt P31652) | nM | 1490 |
| Cc1ccc(CN2CCC(CCOC(c3ccccc3)c3ccccc3)CC2)cc1 | Sodium-dependent serotonin transporter (Rattus norvegicus, UniProt P31652) | nM | 1390 |
| Clc1ccc(CN2CCC(CCOC(c3ccccc3)c3ccccc3)CC2)cc1 | Sodium-dependent serotonin transporter (Rattus norvegicus, UniProt P31652) | nM | 1610 |

----------
Reported Ratio by item:
- experimental system: Monoamine transporters; serotonin & dopamine (Rattus norvegicus) (UniProt P31652+P23977)
- Sequence (P31652 whole entry, looked up, one chain of several): as the sequence (P31652 whole entry) above
- protocol: Ratio of inhibitory activity against Serotonin Transporter compared to Dopamine Transporter
- Type: protein assay
attribute measured: Ratio

| compound | measured number |
| --- | --- |
| Fc1ccc(CN2CCC(CCOC(c3ccccc3)c3ccc(F)cc3)CC2)cc1 (stereo not drawn) | 89 |
| c1ccc(C(OCCC2CCN(Cc3cc4ccccc4s3)CC2)c2ccccc2)cc1 | 8.9 |
| Fc1ccc(CN2CCC(CCOC(c3ccccc3)c3ccccc3)CC2)cc1 | 112 |
| c1ccc(C(OCCC2CCN(Cc3cccnc3)CC2)c2cccs2)cc1 (stereo not drawn) | 15.9 |
| Fc1ccc(CN2CCC(CCOC(c3ccccc3)c3cccs3)CC2)cc1 (stereo not drawn) | 100 |
| Cc1ccc(CN2CCC(CCOC(c3ccccc3)c3ccccc3)CC2)cc1 | 60.4 |
| Fc1ccc(CN2CCC(CCOC(c3ccccc3)c3ccccc3)CC2)cc1Cl | 90 |
| c1ccc(C(OCCC2CCN(Cc3cccs3)CC2)c2ccccc2)cc1 | 21 |
| Nc1ccc(CN2CCC(CCOC(c3ccccc3)c3ccccc3)CC2)cc1 | 15.6 |
| c1ccc(CN2CCC(CCOC(c3ccccc3)c3cccs3)CC2)cc1 (stereo not drawn) | 27 |
| COc1ccc(CN2CCC(CCOC(c3ccccc3)c3ccccc3)CC2)cc1 | 45 |
| c1ccc(C(OCCC2CCN(Cc3cccnc3)CC2)c2ccccc2)cc1 | 13.9 |
| c1ccc(CN2CCC(CCOC(c3ccccc3)c3ccccc3)CC2)cc1 | 49 |

----------
Each item that follows carries a reported pIC50.
- experimental system: Sodium-dependent dopamine transporter (Rattus norvegicus, UniProt P23977)
- Sequence (P23977 whole entry): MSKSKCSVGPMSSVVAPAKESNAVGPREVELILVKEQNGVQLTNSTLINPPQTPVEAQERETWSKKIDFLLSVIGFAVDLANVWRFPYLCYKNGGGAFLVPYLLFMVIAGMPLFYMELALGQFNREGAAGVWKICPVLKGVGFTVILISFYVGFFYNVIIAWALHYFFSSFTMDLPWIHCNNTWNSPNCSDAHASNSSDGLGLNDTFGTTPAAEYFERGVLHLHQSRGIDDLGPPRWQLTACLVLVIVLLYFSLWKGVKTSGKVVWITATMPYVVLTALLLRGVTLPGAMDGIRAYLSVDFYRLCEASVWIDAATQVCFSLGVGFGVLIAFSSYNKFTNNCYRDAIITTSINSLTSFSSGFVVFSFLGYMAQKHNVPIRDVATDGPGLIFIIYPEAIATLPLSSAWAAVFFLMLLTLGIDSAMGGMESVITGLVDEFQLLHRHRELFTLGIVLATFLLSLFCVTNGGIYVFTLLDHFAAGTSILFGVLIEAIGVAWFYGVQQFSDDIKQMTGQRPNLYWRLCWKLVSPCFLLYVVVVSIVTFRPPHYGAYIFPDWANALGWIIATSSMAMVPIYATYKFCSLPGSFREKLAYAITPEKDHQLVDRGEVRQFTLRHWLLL
- protocol: In vitro inhibition of [3H]WIN-35 428 binding to dopamine transporter on rat striatal membranes.
pIC50: −log10 of the molar value.
attribute measured: pIC50

| compound | measured number |
| --- | --- |
| Nc1ccc(CN2CCC(CCOC(c3ccccc3)c3ccccc3)CC2)cc1 | 7.00 |
| Clc1ccc(CN2CCC(CCOC(c3ccccc3)c3ccccc3)CC2)cc1 | 7.61 |
| c1ccc(C(OCCC2CCN(Cc3cccs3)CC2)c2ccccc2)cc1 | 7.23 |
| Cc1ccc(CN2CCC(CCOC(c3ccccc3)c3ccccc3)CC2)cc1 | 7.64 |
| c1ccc(C(OCCC2CCN(Cc3cc4ccccc4s3)CC2)c2ccccc2)cc1 | 6.76 |
| Fc1ccc(CN2CCC(CCOC(c3ccccc3)c3ccc(Cl)cc3)CC2)cc1 (stereo unspecified) | 7.28 |
| Brc1ccc(CN2CCC(CCOC(c3ccccc3)c3ccccc3)CC2)cc1 | 7.51 |
| c1ccc(C(OCCC2CCN(Cc3cccnc3)CC2)c2cccs2)cc1 (stereo unspecified) | 7.23 |
| Fc1ccc(CN2CCC(CCOC(c3ccccc3)c3ccc(F)cc3)CC2)cc1 (stereo unspecified) | 7.85 |
| c1ccc(C(OCCC2CCN(Cc3cccnc3)CC2)c2ccccc2)cc1 | 7.31 |
| c1ccc(CN2CCC(CCOC(c3ccccc3)c3cccs3)CC2)cc1 (stereo unspecified) | 7.57 |
| Fc1ccc(CN2CCC(CCOC(c3ccccc3)c3cccs3)CC2)cc1 (stereo unspecified) | 7.86 |
| Clc1ccc(CN2CCC(CCOC(c3ccccc3)c3ccccc3)CC2)cc1Cl | 7.07 |
| COc1ccc(CN2CCC(CCOC(c3ccccc3)c3ccccc3)CC2)cc1 | 7.56 |
| O=[N+]([O-])c1ccc(CN2CCC(CCOC(c3ccccc3)c3ccccc3)CC2)cc1 | 7.79 |
| Fc1ccc(CN2CCC(CCOC(c3ccccc3)c3ccccc3)CC2)cc1Cl | 7.55 |

----------
Recorded Ratio by entry
- experimental system: Monoamine transporters; serotonin & dopamine (Rattus norvegicus) (UniProt P31652+P23977)
- protocol: Ratio of inhibitory activity against Serotonin Transporter compared to Dopamine Transporter
- Assay type: protein assay
attribute measured: Ratio

| compound | measured number |
| --- | --- |
| Clc1ccc(CN2CCC(CCOC(c3ccccc3)c3ccccc3)CC2)cc1Cl | 33.6 |
| Brc1ccc(CN2CCC(CCOC(c3ccccc3)c3ccccc3)CC2)cc1 | 48 |
| O=[N+]([O-])c1ccc(CN2CCC(CCOC(c3ccccc3)c3ccccc3)CC2)cc1 | 108 |
| Fc1ccc(CN2CCC(CCOC(c3ccccc3)c3ccc(Cl)cc3)CC2)cc1 (stereo not given) | 34.4 |
| Clc1ccc(CN2CCC(CCOC(c3ccccc3)c3ccccc3)CC2)cc1 | 65.1 |
